From: patent US12364694B2

Known Cmax of a selection of compounds
Test: in vivo
Details: rat, sc, 3 mg/kg
The figure you give is taken to be in ng/mL; do not add the unit.

[2H]C([2H])(Oc1ccc(F)cc1)C([2H])([2H])C([2H])([2H])N1CC[C@H]2[C@@H](C1)c1cccc3c1N2CC(=O)N3	81.4

// next item, Cmax requested
Prompt: Could you share which Cmax value was measured for [2H]c1c([2H])c(OC([2H])([2H])C([2H])([2H])C([2H])([2H])N2CC[C@H]3[C@@H](C2)c2cccc4c2N3C([2H])([2H])C(=O)N4)c([2H])c([2H])c1F ?
Completion: 78.9
